B1: CPEB3 Ribozyme (parent)
chain: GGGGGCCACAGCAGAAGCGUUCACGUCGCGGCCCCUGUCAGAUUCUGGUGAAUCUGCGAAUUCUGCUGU

variants of: B1; experiment: self-cleavage, relative activity (ratio to wild type); higher = more cleavage; co-transcriptional
Listing of recorded self-cleavage by entry.

# annotated cases, reported self-cleavage shown
mut: C39U G41U
recorded value: 0.337

mut: A15U C66U
recorded value: 0.643

mut: A40C A60U
recorded value: 0.217

mut: G37A A52U
recorded value: 0.273

Query :: Give self-cleavage for the following variant: A13G U61G
Result :: 0.53

Query :: Give self-cleavage for the following variant: C6G U43C
Result :: 0.39

Query :: Give self-cleavage for the following variant: G37C C66A
Result :: 0.222

Query :: Give self-cleavage for the following variant: G41U U46C
Result :: 0.752

These measurements were taken from the RNAGym collection of RNA variant scans (doi:10.7554/elife.80360).
